Target: human GR (Homo sapiens, UniProt P04150)
Sequence (P04150 whole entry): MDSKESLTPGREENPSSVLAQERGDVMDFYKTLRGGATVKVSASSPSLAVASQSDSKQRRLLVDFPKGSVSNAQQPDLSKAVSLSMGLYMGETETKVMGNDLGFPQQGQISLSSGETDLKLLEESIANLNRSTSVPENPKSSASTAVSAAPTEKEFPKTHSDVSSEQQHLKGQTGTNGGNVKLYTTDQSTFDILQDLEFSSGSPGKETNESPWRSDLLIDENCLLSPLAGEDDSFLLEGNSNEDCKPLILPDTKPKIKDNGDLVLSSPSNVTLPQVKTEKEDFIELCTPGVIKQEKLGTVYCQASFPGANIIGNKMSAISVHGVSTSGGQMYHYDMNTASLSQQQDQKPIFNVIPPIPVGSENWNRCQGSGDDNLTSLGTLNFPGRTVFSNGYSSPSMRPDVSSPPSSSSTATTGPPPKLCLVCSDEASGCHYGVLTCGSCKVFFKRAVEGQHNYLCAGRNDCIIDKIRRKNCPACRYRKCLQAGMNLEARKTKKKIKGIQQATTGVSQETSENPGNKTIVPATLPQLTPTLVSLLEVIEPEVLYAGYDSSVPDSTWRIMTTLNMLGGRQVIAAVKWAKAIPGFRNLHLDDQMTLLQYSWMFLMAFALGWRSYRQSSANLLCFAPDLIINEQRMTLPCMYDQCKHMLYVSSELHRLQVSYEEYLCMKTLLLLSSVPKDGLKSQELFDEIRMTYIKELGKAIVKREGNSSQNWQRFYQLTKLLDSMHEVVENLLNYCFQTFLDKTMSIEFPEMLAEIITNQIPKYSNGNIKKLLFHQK
Assay: Trans-Activation Modulation of Glucocorticoid Receptor (GRAMMER), MMTV-LUC reporter, agonist mode
Format: cell-based
Parameters: endogenous in cells
Settings: A549 cells; inflection point; read-out: Transactivation A549 Cells GRAMMER IP
pEC50: −log10 of the molar value.
Decision: pEC50 >= 7 yields label 1, all other cases yield label 0.

>>> df
                                     smiles  classification
0  COC(=O)c1ccccc1CCN(C[C@H]1CCC2=Cc3c(cnn3-c3ccc(F)cc3)C[C@@]21C)S(=O)(=O)CC(F)(F)F         label 0
1  C[C@]12Cc3cnn(-c4ccc(F)cc4)c3C=C1CC[C@@H]2CN(CC1(O)CC1)S(=O)(=O)c1ccccc1F         label 1
2  C[C@]12Cc3cnn(-c4ccc(F)cc4)c3C=C1CC[C@@H]2CN(CC1(OS(=O)(=O)CC(F)(F)F)CC1)S(=O)(=O)CC(F)(F)F         label 0
3  C[C@]12Cc3cnn(-c4ccc(F)cc4)c3C=C1CC[C@@H]2CN(CC#N)S(=O)(=O)c1cccc(Cl)c1Cl         label 0
4  C[C@]12Cc3cnn(-c4ccc(F)cc4)c3C=C1CC[C@@H]2CN(CCc1ccccc1O)S(=O)(=O)Cc1cccnc1         label 0

Entry source: patent US8299048B2
